System Under Test: PD-L1 antigen (ELISA of Example 2) (human, UniProt Q9NZQ7 19-239, limits assumed)
Sequence (Q9NZQ7 19-239 limits assumed): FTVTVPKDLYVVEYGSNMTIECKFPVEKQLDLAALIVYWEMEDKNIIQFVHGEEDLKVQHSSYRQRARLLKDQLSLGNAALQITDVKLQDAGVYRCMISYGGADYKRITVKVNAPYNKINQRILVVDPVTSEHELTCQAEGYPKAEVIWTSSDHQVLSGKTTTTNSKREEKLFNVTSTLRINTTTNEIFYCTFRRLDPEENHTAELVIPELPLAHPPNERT
Measurement Protocol: ELISA, signal on PD-L1 antigen over control
Readout Kind: A/control

Solved entries:
{"Binder": "2LIG34 (VHH, PD-L1 VHH) VHH: QVQLQESGGGSVQAGGSLRLSCTASGTIFSINRMDWFRQAPGKQRELVALITSDGTPTYADSAKGRFTISRDNTKKTVSLQMNSLKPEDTAVYYCHVSSGVYNYWGQGTQVTVSS", "A/control": 3.59}
{"Binder": "3LIG8 (VHH, PD-L1 VHH) VHH: QVQLQESGGGLVQPGGSLRLSCTASGTIFSINRMDWFRQAPGKQRELVALITSDGTPTYADSAKGRFTISRDNTKKTVSLQMNSLKPEDTAVYYCHVSSGVYNYWGQGTQVTVSS", "A/control": 4.39}

(P) 2LIG2 (VHH, PD-L1 VHH) VHH: QVQLQESGGGLVQAGGSLRLSCAASGFTLDYYAIGWFRQAPGKEREEVSCISSSDGSTYYADSVKGRFTISRDNAKNTVNLQMNSLKPEDTAVYYCATDGWSSCRHGINEYLYWGQGTQVTVSS
(Q) 3LIG33 (VHH, PD-L1 VHH) VHH: QVQLQESGGGLVQPGTSLRLSCAASGFTLDYYAIGWFRQAPGKEREEVSCISSSDGSTYYADSVKGRFTISRDNAKNTVNLQMNSLKPEDTAVYYCATDGWSSCRHGINEYLYWGQGTQVTVSS
Query :: Returns: the label, P or Q , whose recorded A/control is the lower number. The response must carry the label of the picked entry.
Result :: P
